# Test system: human hepatocytes
# experiment summary: Human Hepatocyte Stability Assay
# Format: in vitro ADME
# study conditions: comparison table with known compounds; head prints "(units)", L/hr/kg from the method
parameter measured: Hheps CL (mL/min/kg)
Give bare numbers, in mL/min/kg.

Answered cases to consult:
# compound, Hheps CL, mL/min/kg
records = [
    ("Cc1ncc(-c2cn3ccnc3c(Nc3ccc(N4CCOCC4)cc3)n2)cc1N [reference compound]", 13.3),
    ("Nc1cncc(-c2cn3ccnc3c(Nc3ccc(N4CCO[C@@H](CO)C4)cc3)n2)n1", 1.5),
]

Query string: Item under review: Nc1cncc(-c2cn3ccnc3c(Nc3ccc(N4CCN(C5COC5)CC4)cc3)n2)n1 . Reported Hheps CL?
Result string: 0.917

Numbers sourced from patent US11517570B2.
